Test system: SK-OV-3 ovarian
Assay: NCI tumour cell line growth inhibition, 48 h
Where a SMILES comes first, the peptide text is derived from it. [ ]: non-standard residue; d: D form. The star is where a group is joined. X28 = COC1=CC(=O)N(C(=O)[C@@H](O*)C(C)C)[C@H]1Cc1ccccc1; NMeV = CN[C@H](C(=O)O)C(C)C; Hexanoyl = CCCCCC(=O)*
Measurement Type: TGI

Enquiry: Quick one: TGI for `CN(CC1(CO)CCC1)c1cc(Cl)nc(N)n1` ?
Return: > 100 µM

Enquiry: Quick one: TGI for `O=C(Cc1ccccc1)NNc1nc(NNC(=O)c2ccncc2)nc(Nc2ccc([N+](=O)[O-])cc2)n1` ?
Return: > 10 µM

Enquiry: Quick one: TGI for `CCOC(=O)c1cc(NS(=O)(=O)c2ccccc2)cc(C(=O)OCC)c1` ?
Return: > 100 µM

Enquiry: Quick one: TGI for CCCCCC(=O)N[C@H](C(=O)N[C@H](C(=O)N(C)[C@H](C(=O)N1CCC[C@H]1C(=O)N1CCC[C@H]1C(=O)O[C@H](C(=O)N1C(=O)C=C(OC)[C@@H]1Cc1ccccc1)C(C)C)C(C)C)C(C)C)C(C)C (Hexanoyl-VV[NMeV]PP-X28) ?
Return: > 100 µM

Enquiry: Quick one: TGI for `Cc1c(C(=O)C/C(=N\O)C(=O)Nc2cc(Cl)c(Cl)cc2Cl)[n+](=O)c2ccccc2n1[O-]` ?
Return: > 100 µM

Enquiry: Quick one: TGI for `O=c1cc(NNc2ccccc2)[nH]c(=S)[nH]1` ?
Return: > 100 µM

Enquiry: Quick one: TGI for `Cc1ccc(-c2cn3ccnc3c(-c3ccc(Cl)cc3)n2)cc1` ?
Return: > 94 µM

Enquiry: Quick one: TGI for CCC1NC(=O)C1NC(=O)OC (stereo not given) ?
Return: > 100 µM

Enquiry: Quick one: TGI for `CC#C[C@]1(O)CC[C@H]2[C@@H]3CCC4=CC(=O)CCC4=C3[C@@H](c3ccc4c(c3)OCO4)C[C@@]21C` ?
Return: 777 µM

###

Tested on: SW-620 colon
Assay: NCI tumour cell line growth inhibition, 48 h
Measurement Type: GI50

Some compounds with known GI50 results, for comparison:
COc1cccc2c1c(C(=O)C(=O)Nc1cc(C)no1)cn2Cc1ccc(F)cc1: 3680 nM
CN(C)CCNc1c2c(c(NCCN(C)C)c3[nH]ccc13)C(=O)c1ccccc1C2=O: 385 nM
CCc1nccc2c1nc(-c1nonc1N)n2CC: > 25000 nM
CC#C[C@]1(O)CC[C@H]2[C@@H]3CCC4=CC(=O)CCC4=C3[C@@H](c3ccc4c(c3)OCO4)C[C@@]21C: 62300 nM
C=CCC[CH2][Sn]([c]1ccccc1)([c]1ccccc1)[c]1ccccc1: 856 nM

Enquiry: For SW-620 colon, provide GI50 of COc1cc(C2CC(c3ccc4c(c3)OCO4)=NN2C=O)cc(OC)c1OC (configuration not stated) please.
Return: 1210 nM

Enquiry: For SW-620 colon, provide GI50 of `O=c1cc(-c2ccccc2)[nH]c2ccccc12` please.
Return: 379 nM

###

Test system: MOLT-4 leukemia
Assay: NCI tumour cell line growth inhibition, 48 h
Measurement Type: TGI

COc1cc(Cn2c3ccccc3c3cc(C)c4c(c32)C=CC(C)(CCC=C(C)C)O4)cc2c1[nH]c1ccccc12 (stereo not drawn): > 100 µM
CC(=O)N1C(c2[nH]c3ccccc3c2-c2ccccc2)CCN1c1ccccc1 (stereo not drawn): > 10 µM

Query compound follows.
Enquiry: For MOLT-4 leukemia, provide TGI of `O=C(/C=C/c1ccccc1)/C=N/N1C(=S)N(c2ccccc2)C(=Nc2ccccc2)C1=Nc1ccccc1` please.
Return: > 100 µM

###

System: SF-268 CNS
Assay: NCI tumour cell line growth inhibition, 48 h; in the data active = GI50 below about 0.43 µM; inactive = the rest
Pick one: yes for active, no for inactive

Cc1ccc(-c2cn3ccnc3c(-c3ccc(Cl)cc3)n2)cc1: yes
O=C1c2cccnc2C(=O)c2nc3cc(N4CCN(C5CC5)CC4)ccc3nc21: no

Shifting focus to the compound that follows.
Enquiry: Would you mind telling me which call this test gave `COc1ccc(-c2csc(N(C(=O)N3CCN(c4cc5c(cc4F)c(=O)c(C(=O)O)cn5C4CC4)CC3)c3ccccc3)n2)cc1` ?
Return: no

###

Test system: NCI/ADR-RES ovarian
Assay: NCI tumour cell line growth inhibition, 48 h
Measurement Type: TGI

Cn1c(=O)c2c(nc(-n3nc(-c4ccc(Cl)cc4)cc3N)n2C)n(C)c1=O: > 100 µM
CNC(=O)OC(C)CN1c2ccccc2Sc2ccc(Cl)cc21 (configuration not stated): > 10 µM
O=CC(=C(I)I)c1ccccc1: > 38.5 µM
CCOC(=O)c1cc(NS(=O)(=O)c2ccccc2)cc(C(=O)OCC)c1: > 100 µM
O=C(CCCCCCC(=O)Nc1ccc(N(CCCl)CCCl)cc1)NO: > 100 µM

Enquiry: For NCI/ADR-RES ovarian, provide TGI of Nc1nc2c(c3ncncc13)C(c1cccc(C(F)(F)F)c1)Cc1ncncc1-2 (configuration not stated) please.
Return: > 100 µM

Enquiry: For NCI/ADR-RES ovarian, provide TGI of `CCOC(=O)CSc1nc(N)c2c(-c3ccc(OC)c(OC)c3)c3c(nc2n1)CCCC3` please.
Return: > 100 µM

###

// reported TGI for each item listed
Test system: SF-295 CNS
Assay: NCI tumour cell line growth inhibition, 48 h

Some compounds with known TGI results, for comparison:
COc1ccc(-c2nn3c(-c4cc(F)c(Cl)cc4Cl)nnc3s2)cc1: 65.3 µM
O=c1c2nn3c(=O)n(-c4ccccc4)c(=O)c3nn2c(=O)n1-c1ccccc1: > 100 µM
CCOP(=O)(OCC)C1CC(O)C(=O)N1 (configuration not stated): > 100 µM
CCC1C(C#N)=C(N)OC2=C1C(=O)CC(C)(C)C2 (configuration not stated): > 100 µM
C1C[OH+]CC[OH+]CCNCC[OH+]CC[OH+]CCN1.N.[Cl-].[Pt+4]: 19.7 µM
CCOC(=O)c1cc(NS(=O)(=O)c2ccccc2)cc(C(=O)OCC)c1: > 100 µM

Query compound follows.
Enquiry: Quick one: TGI for `O=C(CN1CCOCC1)Nc1nc(-c2ccc(Cl)cc2)cs1` ?
Return: > 100 µM

###

System: HS 578T breast
Test: NCI tumour cell line growth inhibition, 48 h
Measurement Type: TGI

Some compounds with known TGI results, for comparison:
CC(NNC(=O)c1ccncc1)c1ccc(F)cc1 (stereo not given): > 100 µM
CC(=O)OCC1OC(SC2=N/C(=C\c3cc4c(=O)c5ccccc5sc4s3)C(=O)N2c2ccccc2)C(OC(C)=O)C(OC(C)=O)C1OC(C)=O (stereo not given): > 100 µM
CC(C)(Br)C(Br)CCC(C)(Br)C(Br)CO (stereo not given): > 10 µM

Enquiry: Quick one: TGI for CCOC(=O)c1c(N)sc2c1C(C(=O)OCC)CC2 (stereo not given) ?
Return: > 100 µM

Enquiry: Quick one: TGI for `CCCCCCCCCCCC(=O)Oc1c(Cl)cc(Cl)c(OC(=O)C(=O)Oc2c(Cl)cc(Cl)c(OC(=O)CCCCCCCCCCC)c2Cl)c1Cl` ?
Return: > 100 µM

###

// reported TGI for each item listed
Tested on: RXF 393 renal
Assay: NCI tumour cell line growth inhibition, 48 h

Cc1[nH]ccc2c1[nH]c1cc(=O)ccc12: > 100 µM
O=C(COc1ccc2c(=O)cc(-c3ccccc3)oc2c1)N1CCN(c2ccccc2)CC1: > 100 µM
CC(=O)OCC1OC(SC2=N/C(=C\c3cc4c(=O)c5ccccc5sc4s3)C(=O)N2c2ccccc2)C(OC(C)=O)C(OC(C)=O)C1OC(C)=O (stereo unspecified): > 100 µM
CN(CC1(CO)CCC1)c1cc(Cl)nc(N)n1: > 100 µM
NC(=O)N=C(N(Cc1ccccc1)Cc1ccccc1)N(Cc1ccccc1)Cc1ccccc1: > 100 µM

Query compound follows.
Enquiry: Quick one: TGI for O=C1C=C2C(=NC34CCCCC3C(c3ccccc3)C3=C(c5ccccc5CC3)N24)c2ccccc21 (stereo unspecified) ?
Return: > 10 µM

###

Tested on: NCI-H460 lung
Assay: NCI tumour cell line growth inhibition, 48 h
Measurement Type: TGI

Some compounds with known TGI results, for comparison:
N#CCc1nc2ccccc2c(=O)[nH]1: > 100 µM
CN1CCC(n2cnc(-c3ccc(F)cc3)c2-c2ccnc(NCCO)n2)CC1: > 25 µM

Query compound follows.
Enquiry: Quick one: TGI for `C[C@@H]1C[C@H]2CC[C@H](O2)[C@H](C)C(=O)O[C@@H](C)C[C@@H]2CC[C@@H](O2)[C@@H](C)C(=O)O[C@H](C)C[C@H]2CC[C@H](O2)[C@H](C)C(=O)O[C@@H](C)C[C@@H]2CC[C@@H](O2)[C@@H](C)C(=O)O1` ?
Return: > 100 µM
